// provenance: paper PMC6061170

Below: a set of entries, each annotated with reported pIC50.
Subject Of Test: serotonin 5-HT1A receptors (Rattus norvegicus, UniProt P19327)
Construct: from tissue; host or cells: rat brain tissues
Sequence (P19327 whole entry): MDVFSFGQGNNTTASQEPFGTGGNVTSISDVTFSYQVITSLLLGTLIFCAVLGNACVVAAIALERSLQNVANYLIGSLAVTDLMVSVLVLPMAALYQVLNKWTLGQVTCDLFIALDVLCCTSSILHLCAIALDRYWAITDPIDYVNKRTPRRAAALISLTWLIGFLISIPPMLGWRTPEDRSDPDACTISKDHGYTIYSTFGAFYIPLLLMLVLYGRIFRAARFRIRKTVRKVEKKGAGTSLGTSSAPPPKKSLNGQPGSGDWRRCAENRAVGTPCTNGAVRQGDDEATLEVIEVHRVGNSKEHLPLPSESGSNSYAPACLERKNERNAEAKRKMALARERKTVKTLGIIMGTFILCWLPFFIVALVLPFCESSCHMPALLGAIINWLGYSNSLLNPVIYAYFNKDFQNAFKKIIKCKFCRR
Assay Remarks: Radioligand binding assay, 5-HT1A receptors
pIC50: −log10 of the molar value.
Property Name: pIC50

[[record]]
compound = "O=C(NC1CC2CCC(C1)N2Cc1ccccn1)c1ccc2ncccc2c1 (stereo not drawn) [Compound 12n]"
subject_of_test = "serotonin 5-HT1A receptors (Rattus norvegicus, UniProt P19327)"
property_name = "pIC50"
result_value = "< 5.00"

[[record]]
compound = "O=C(NC1CC2CCC(C1)N2Cc1ccncc1)c1ccc2ncccc2c1 (stereo not drawn) [Compound 12v]"
subject_of_test = "serotonin 5-HT1A receptors (Rattus norvegicus, UniProt P19327)"
property_name = "pIC50"
result_value = "< 5.00"

[[record]]
compound = "O=C(NC1CC2CCC(C1)N2Cc1cccnc1)c1cnc2ccccc2c1 (stereo not drawn) [Compound 12q]"
subject_of_test = "serotonin 5-HT1A receptors (Rattus norvegicus, UniProt P19327)"
property_name = "pIC50"
result_value = "< 5.00"

[[record]]
compound = "O=C(NC1CC2CCC(C1)N2Cc1cccnc1)c1ccc2ncccc2c1 (stereo not drawn) [Compound 12r]"
subject_of_test = "serotonin 5-HT1A receptors (Rattus norvegicus, UniProt P19327)"
property_name = "pIC50"
result_value = "< 5.00"

[[record]]
compound = "COc1cc(C(=O)NC2CC3CCC(C2)N3Cc2cccc(C)c2)nc2ccccc12 (stereo not drawn) [Compound 12h]"
subject_of_test = "serotonin 5-HT1A receptors (Rattus norvegicus, UniProt P19327)"
property_name = "pIC50"
result_value = 7.20

[[record]]
compound = "O=C(NC1CC2CCC(C1)N2Cc1ccncc1)c1cnc2ccccc2c1 (stereo not drawn) [Compound 12u]"
subject_of_test = "serotonin 5-HT1A receptors (Rattus norvegicus, UniProt P19327)"
property_name = "pIC50"
result_value = "< 5.00"


----------
Structures can show the parent of a compound that is named as a salt.
Examples of compounds with documented melting point follow.
Property Name: melting point

[[record]]
compound = "Cc1cccc(CN2C3CCC2CC(NC(=O)c2ccc4ccccc4n2)C3)c1 (stereo not drawn) [Compound 12e]"
result_value = "113.8 to 114.7 °C"

[[record]]
compound = "O=C(NC1CC2CCC(C1)N2Cc1cccnc1)c1cnc2ccccc2c1 (stereo not drawn) [Compound 12q]"
result_value = "138.3 to 146.2 °C"

[[record]]
compound = "O=C(NC1CC2CCC(C1)N2Cc1ccncc1)c1cnc2ccccc2c1 (stereo not drawn) [Compound 12u]"
result_value = "69.5 to 72 °C"

[[record]]
compound = "O=C(NC1CC2CCC(C1)N2Cc1ccccn1)c1cnc2ccccc2c1 (stereo not drawn) [Compound 12m]"
result_value = "169.4 to 170.5 °C"

[[record]]
compound = "O=C(NC1CC2CCC(C1)N2Cc1ccncc1)c1ccc2ccccc2n1 (stereo not drawn) [Compound 12t]"
result_value = "143 to 145.7 °C"

[[record]]
compound = "COc1cc(C(=O)NC2CC3CCC(C2)N3Cc2ccccn2)nc2ccccc12 (stereo not drawn) [Compound 12o]"
result_value = "132.5 to 133 °C"

[[record]]
compound = "O=C(NC1CC2CCC(C1)N2Cc1ccccn1)c1ccc2ncccc2c1 (stereo not drawn) [Compound 12n]"
result_value = "193.7 to 194.5 °C"

[[record]]
compound = "COc1cc(C(=O)NC2CC3CCC(C2)N3Cc2cccc(C)c2)nc2ccccc12 (stereo not drawn) [Compound 12h]"
result_value = "116.1 to 118.3 °C"

[[record]]
compound = "Nc1ccc(CN2C3CCC2CC(NC(=O)c2ccc4ccccc4c2)C3)cc1 (stereo not drawn) [Compound 19c]"
result_value = "201.6 to 208.8 °C"

[[record]]
compound = "Cc1ccc(CN2C3CCC2CC(NC(=O)c2cnc4ccccc4c2)C3)cc1 (stereo not drawn) [Compound 12j]"
result_value = "219.5 to 220.8 °C"

[[record]]
compound = "COc1cc(C(=O)NC2CC3CCC(C2)N3Cc2ccccc2C)nc2ccccc12 (stereo not drawn) [Compound 12d]"
result_value = "54.5 to 55.9 °C"

[[record]]
compound = "O=C(NC1CC2CCC(C1)N2Cc1ccncc1)c1ccc2ncccc2c1 (stereo not drawn) [Compound 12v]"
result_value = "182 to 183.3 °C"

[[record]]
compound = "Cc1cccc(CN2C3CCC2CC(NC(=O)c2cnc4ccccc4c2)C3)c1 (stereo not drawn) [Compound 12f]"
result_value = "194 to 194.7 °C"

[[record]]
compound = "COc1cc(C(=O)NC2CC3CCC(C2)N3Cc2ccncc2)nc2ccccc12 (stereo not drawn) [Compound 12w]"
result_value = "52 to 55 °C"

[[record]]
compound = "Cc1ccccc1CN1C2CCC1CC(NC(=O)c1ccc3ncccc3c1)C2 (stereo not drawn) [Compound 12c]"
result_value = "211.4 to 212.7 °C"

[[record]]
compound = "O=C(NC1CC2CCC(C1)N2Cc1cccnc1)c1ccc2ccccc2n1 (stereo not drawn) [Compound 12p]"
result_value = "143 to 143.4 °C"

[[record]]
compound = "COc1cc(C(=O)NC2CC3CCC(C2)N3Cc2cccnc2)nc2ccccc12 (stereo not drawn) [Compound 12s]"
result_value = "162.6 to 165.5 °C"

[[record]]
compound = "Cc1ccc(CN2C3CCC2CC(NC(=O)c2ccc4ccccc4n2)C3)cc1 (stereo not drawn) (as salt: oxalate) [Compound 12i]"
result_value = "215 to 215.4 °C"

